# experiment_description: qHTS assay to identify small molecule agonists of the farnesoid-X-receptor (FXR) signaling pathway - cell viability counter screen (AID 743218); further: nearly all actives have a fitted effect of over 45% in size
# experimental_conditions: FXR-bla HEK293T viability, CellTiter-Glo luminescence, 16 h; series mostly up to 62.6 µM
Results filed as inconclusive are left out. Active and inactive are the calls of the source. The call rests on the fitted dose curve; in most records, active means well fitted cell-killing curve with a large enough effect in the repeat runs; inconclusive means weak or mixed curves, or effect the other way; inactive means no such curve, though single readings can be large or run the other way.
Outcomes: Y (active), N (inactive)

compound	qualitative_label
C/C(=N/NC(=O)c1ccncc1)C(=O)O	N
O=C(O)C(Cc1cc(I)c(O)c(I)c1)c1ccccc1 (configuration not stated)	N
OCCSc1ccccc1	N
Cc1c(C(=O)NN2CCCCC2)nn(-c2ccc(Cl)cc2Cl)c1-c1ccc(Cl)cc1	Y
CC(=O)CC(c1ccc([N+](=O)[O-])cc1)c1c(O)c2ccccc2oc1=O (configuration not stated)	N
Nc1ccc(S(=O)(=O)O)cc1	N
c1cnc2c(n1)CCCC2	N

====

# assay_target: Nuclear receptor subfamily 1 group I member 3 (Homo sapiens)
# experiment_description: qHTS assay to identify small molecule agonists of the constitutive androstane receptor (CAR) signaling pathway (AID 1224839); further: nearly all actives have a fitted effect of over 15% in size;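 on activation: HepG2 cells stably carrying human CAR and a CYP2B6 luciferase reporter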
# experimental_conditions: HepG2 hCAR CYP2B6-luciferase, agonist mode, 24 h; series mostly up to 92.4 µM
Records with an inconclusive call do not appear. Activity calls are given as the source filed them. Calls follow the shape of the dose curve; as a rule, active = well fitted activation curve with a large enough effect in the repeat runs; inconclusive = weak or mixed curves; inactive = no such curve, though single readings can be large or run the other way.
Possible outcomes: y for active, n for inactive

compound	qualitative_label
Cc1nccn1-c1ccc(Sc2cccc(C3(C(N)=O)CCOCC3)c2)cc1	y
C[N+]1(C)CCC(=C(c2ccccc2)c2ccccc2)CC1	n
CCCCC(CC)CNCC(CC)CCCC (configuration not stated)	n
OC(CCCN1CCCCC1)(c1ccccc1)c1ccccc1	n
O=[N+]([O-])c1cccc(S(=O)(=O)NCCNS(=O)(=O)c2cccc([N+](=O)[O-])c2)c1	n
COC(=O)[C@@H]1CC2=CC(=O)CC[C@]2(C)[C@@]23O[C@@H]2C[C@@]2(C)[C@@H](CC[C@@]24CCC(=O)O4)[C@H]13	n
c1cc[c]([Bi]([c]2ccccc2)[c]2ccccc2)cc1	y
COc1ccc([C@@H]2Sc3ccccc3NC(=O)[C@@H]2O)cc1	n
NC(=O)Nc1ccc(Cl)cc1	n
Cc1cc(O)c2c(O)c3c(O)cccc3cc2c1	y
NC(=O)Nc1ccc(Cl)c(Cl)c1	n
Nc1ccc(S(=O)(=O)O)cc1	n
CN1CCN(CCCN2c3ccccc3Sc3ccc(S(=O)(=O)N(C)C)cc32)CC1	n
NCC1CCCC(CN)C1 (configuration not stated)	n
CC1(C)C(=O)N(Br)C(=O)N1Cl	n
C[Si]1(C)O[Si](C)(C)O[Si](C)(C)O1	n
CC(COc1ccc(C(C)(C)C)cc1)OS(=O)OCCCl (configuration not stated)	n
O=C(O)C(Cc1cc(I)c(O)c(I)c1)c1ccccc1 (configuration not stated)	n
CCc1nn(CCCN2CCN(c3cccc(Cl)c3)CC2)c(=O)n1CCOc1ccccc1	n
CC(=N\O)/C(C)=N/O	n
CCCCCCCC/C=C\CCCCCCCC(=O)OC(CO)CO	n
CCC(C)(C)C1CCC(O)CC1 (configuration not stated)	n
Cc1ccc(S)cc1	n
C[N+](C)(C)CCOC(N)=O	n
CC(C)(C)C(=O)O	n
CCCCC(=O)O[C@]1(C(=O)CO)CC[C@H]2[C@@H]3CCC4=CC(=O)CC[C@]4(C)[C@H]3[C@@H](O)C[C@@]21C	n
O=C(CS)OCCOC(=O)CS	n
CN(C)CCOC1=Cc2ccccc2Sc2ccc(Cl)cc21	n
CCOC(=O)N1CCC(n2c(=O)[nH]c3cc(Cl)ccc32)CC1	n
CCOC(=O)c1ccccc1C	n
O=C(CCCN1CCN(c2ccc(F)cc2)CC1)NC1c2ccccc2CSc2ccccc21 (configuration not stated)	n
C=CC(C)=CCC=C(C)C	n

====

# experiment_description: qHTS assay to identify small molecule agonists of the constitutive androstane receptor (CAR) signaling pathway - cell viability counter screen (AID 1224836); further: nearly all actives have a fitted effect of over 45% in size
# experimental_conditions: HepG2-CYP2B6-hCAR viability, CellTiter-Fluor, 23 h, PK11195 added to every well; series mostly up to 92.4 µM
Results filed as inconclusive are left out. The source made the active and inactive calls. The call rests on the fitted dose curve; in most records, active means well fitted cell-killing curve with a large enough effect in the repeat runs; inconclusive means weak or mixed curves, or effect the other way; inactive means flat fitted curve, though single readings scatter.
Labels: true (1) (active), false (0) (inactive)

molecule	qualitative_label
CC1=NN(c2ccc(C(=O)O)cc2)C(=O)C1	false (0)
Cc1oc(C)c(C(=O)Nc2ccccc2)c1C	false (0)
C[N+](C)(C)CCOC(N)=O	false (0)
CCCC1C(CC)=CC(CC)=CN1c1ccccc1 (configuration not stated)	false (0)
CCOCCn1c(C2CCN(CCc3ccc(C(C)(C)C(=O)O)cc3)CC2)nc2ccccc21	false (0)
Cc1cnc(C)c(C)n1	false (0)
CCOC(=O)c1ccccc1C	false (0)
O=C(N[C@@H](c1ccccc1)[C@@H]1CCCCN1)c1cccc(C(F)(F)F)c1Cl	true (1)
CC(C)(C)C(=O)C(Oc1ccc(Cl)cc1)n1ccnc1 (configuration not stated)	false (0)
C=CC(C)=CCC=C(C)C	false (0)
CC(C)(CCl)c1ccccc1	false (0)
O=C(OCCOCCO)c1ccccc1Nc1cccc(C(F)(F)F)c1	false (0)
CC(C)CCCCCCOC(=O)CCCCC(=O)OCCCCCCC(C)C	false (0)
CCCCC/C(=C\c1ccccc1)CO	false (0)
CC1(C)C(=O)N(Br)C(=O)N1Cl	false (0)
NC(=O)Nc1ccc(Cl)c(Cl)c1	false (0)
CCCCCCCC/C=C\CCCCCCCC(=O)OC	false (0)
CC(N)CN (configuration not stated)	false (0)
COc1ccc([C@@H]2Sc3ccccc3NC(=O)[C@@H]2O)cc1	false (0)
CC(CCO)CCc1ccccc1 (configuration not stated)	false (0)
Cc1ccc(Nc2nccc(N(C)c3ccc4c(C)n(C)nc4c3)n2)cc1S(N)(=O)=O	false (0)
CCCCCCCCCCCC(=O)[O][Sn]([CH2]CCC)([CH2]CCC)[O]C(=O)CCCCCCCCCCC	false (0)
CC(=N\O)/C(C)=N/O	false (0)
CC(=O)Oc1ccc(C(=C2CCCCC2)c2ccc(OC(C)=O)cc2)cc1	false (0)
Oc1ccc(Nc2ccccc2)cc1	false (0)
C=C(C)C(=O)OCCOC(=O)CC(C)=O	false (0)
c1cc[c]([Bi]([c]2ccccc2)[c]2ccccc2)cc1	false (0)
Oc1cc(O)c(Cl)cc1Cl	false (0)
CCCCCCCC/C=C\CCCCCCCC(=O)OC(CO)CO	false (0)
CCC(=O)Oc1ccc(/C(CC)=C(\CC)c2ccc(OC(=O)CC)cc2)cc1	false (0)
C[Si]1(C)O[Si](C)(C)O[Si](C)(C)O1	false (0)
CCC(C(=O)OCCOCCN(CC)CC)c1ccccc1 (configuration not stated)	false (0)
Cc1ccc(S(=O)(=O)NC2CCCCC2)cc1	false (0)
O=C(O)c1cccc(O)c1	false (0)
CO[C@@]12[C@H](COC(N)=O)C3=C(C(=O)C(C)=C(N)C3=O)N1C[C@@H]1N[C@@H]12	true (1)
NC(=O)N(O)[C@@H]1COc2cc(OCc3ccccc3)ccc21	false (0)
NCC1CCCC(CN)C1 (configuration not stated)	false (0)
CC1(C)O[C@@H]2C[C@H]3[C@@H]4CCC5=CC(=O)C=C[C@]5(C)[C@H]4[C@@H](O)C[C@]3(C)[C@]2(C(=O)CO)O1	false (0)
CCOC(=O)/C=C/C(=O)O	false (0)
CN1C(=O)CC(C)(c2ccccc2)C1=O (configuration not stated)	false (0)
CCCOCCOCCO	false (0)
CCCCCCOC(=O)CCCCCCCC(=O)OCCCCCC	false (0)
Nc1ccc(S(=O)(=O)O)c(N)c1	false (0)
CC(C)(O)c1ccccc1CC[C@@H](SCC1(CC(=O)O)CC1)c1cccc(/C=C/c2ccc3ccc(Cl)cc3n2)c1	false (0)
COCCOC	true (1)
C/C(=N/NC(=O)c1ccncc1)C(=O)O	false (0)
OCCSc1ccccc1	false (0)
CCN(Cc1cccc(S(=O)(=O)O)c1)c1ccc(C(=C2C=CC(=[N+](CC)Cc3cccc(S(=O)(=O)[O-])c3)C=C2)c2ccccc2)cc1	false (0)
CC1=C(/C=C/C(C)=C\C=C\C(C)=C\C(=O)O)C(C)(C)CCC1	false (0)
CN1Cc2cc(C(=O)N3CCC(C4CCNCC4)CC3)ccc2N[C@@H](CC(=O)O)C1=O	false (0)
O=C(NCCCN1CCOCC1)c1ccc(Cl)cc1	false (0)
O=C(O)Cc1ccc(-c2ccccc2)cc1	false (0)

====

# experiment_description: qHTS assay to identify small molecule agonists of the peroxisome proliferator-activated receptor delta (PPARd) signaling pathway - cell viability counter screen (AID 743211); further: nearly all actives have a fitted effect of over 55% in size
# experimental_conditions: PPARd-bla HEK293H viability, CellTiter-Glo luminescence, 17 h; series mostly up to 62.6 µM
# Description: U.S. Tox21 Program National Center for Advancing Translational Sciences [NCATS] NIH Chemical Genomics Center [NCGC] U.S. Environmental Protection Agency [EPA] National Institutes of Environmental Health Sciences [NIEHS] National Toxicology Program [NTP] U.S. Food and Drug Administration [FDA] […]
Inconclusive results are not listed. Active and inactive are the calls of the source. Calls follow the shape of the dose curve; as a rule, active = well fitted cell-killing curve with a large enough effect in the repeat runs; inconclusive = weak or mixed curves; inactive = no such curve, though single readings can be large or run the other way.
Possible outcomes: 1 (active), -1 (inactive)

compound	qualitative_label
CCCCC(CC)COC(=O)COc1ccc(Cl)cc1C (configuration not stated)	-1
Cc1nccn1-c1ccc(Sc2cccc(C3(C(N)=O)CCOCC3)c2)cc1	-1
CC(=N\O)/C(C)=N/O	-1
C[C@]12CCC(=O)C=C1C=C[C@@H]1[C@@H]2CC[C@@]2(C)[C@H]1CC[C@@]21CCC(=O)O1	-1
CCCCOC(=O)CCS	-1
C1COCO1	-1
CCc1cccc(N(C)C(N)=Nc2cccc3ccccc23)c1	-1
CC[C@@H]([C@H](C)O)n1ncn(-c2ccc(N3CCN(c4ccc(OC[C@@H]5CO[C@@](Cn6cncn6)(c6ccc(F)cc6F)C5)cc4)CC3)cc2)c1=O	1
Cc1cc(S(=O)(=O)O)ccc1N=Nc1c(O)ccc2ccccc12	-1
O=C(CS)OCCOC(=O)CS	-1
NC(=O)Nc1ccc(Cl)cc1	-1
CC1(C)C(=O)N(Br)C(=O)N1Cl	-1
Cc1ccc(/C=N/n2c(-c3ccccc3)csc2=S)cc1	-1
CO[C@H]1C=CO[C@@]2(C)Oc3c(C)c(O)c4c(O)c(c5c(c4c3C2=O)=NC2(CCN(CC(C)C)CC2)N=5)NC(=O)/C(C)=C\C=C/[C@H](C)[C@H](O)[C@@H](C)[C@@H](O)[C@@H](C)[C@H](OC(C)=O)[C@@H]1C	1
CCC(=O)Oc1ccc(/C(CC)=C(\CC)c2ccc(OC(=O)CC)cc2)cc1	1
CCCCC(=O)O[C@]1(C(=O)CO)[C@@H](C)C[C@H]2[C@@H]3CCC4=CC(=O)C=C[C@]4(C)[C@@]3(F)[C@@H](O)C[C@@]21C	-1
O=C(c1ccc(O)cc1)c1ccc(Cl)cc1	-1
Cc1c(C(=O)NN2CCCCC2)nn(-c2ccc(Cl)cc2Cl)c1-c1ccc(Cl)cc1	1
CC(=O)Oc1ccc2c(c1)CC[C@@H]1[C@@H]2CC[C@]2(C)[C@@H](O)CC[C@@H]12	-1
Cc1cc(C(=C2C=CC(=Nc3ccc(S(=O)(=O)O)cc3S(=O)(=O)O)C=C2)c2ccc(Nc3ccc(S(=O)(=O)O)cc3)cc2)ccc1N	-1
CCCCCCCCCCCCCCCCBr	-1
CC(=O)CC(c1ccc([N+](=O)[O-])cc1)c1c(O)c2ccccc2oc1=O (configuration not stated)	-1
N#C[C@@H]1C[C@@H]2C[C@@H]2N1C(=O)[C@@H](N)C12CC3CC(CC(O)(C3)C1)C2	-1
CCCCCCOC(=O)C(C)C	-1
CCC(=O)OC/C=C/c1ccccc1	-1
C[N+](C)(C)CCOC(N)=O	-1
CC(=O)OCC(=O)[C@H]1CC[C@H]2[C@@H]3CCC4=CC(=O)CC[C@]4(C)[C@H]3CC[C@]12C	-1
COCCOC	-1
Fc1c(F)c(F)c(Br)c(F)c1F	-1
CC(=O)N(c1onc(C)c1C)S(=O)(=O)c1ccc(N)cc1	-1
NCC1CCCC(CN)C1 (configuration not stated)	-1
O=C1OCCN1/N=C/c1ccc([N+](=O)[O-])o1	-1
CN(C)CCOC1=Cc2ccccc2Sc2ccc(Cl)cc21	1
COCC(O)CO (configuration not stated)	-1
CC(C)(C)C(=O)O	-1
CCOC(=O)c1ccccc1OC	-1
O=C(N[C@@H](c1ccccc1)[C@@H]1CCCCN1)c1cccc(C(F)(F)F)c1Cl	1
CC(=O)OCC(=O)[C@@]12OC(C)(C)O[C@@H]1C[C@H]1[C@@H]3C[C@H](F)C4=CC(=O)C=C[C@]4(C)[C@@]3(F)[C@@H](O)C[C@@]12C	-1
CCCCC/C(=C\c1ccccc1)CO	-1
COc1ccc(C(=O)c2cccc(O)c2)c(OC)c1	-1
CCCCCCCCCOC(C)=O	-1
Nc1c(I)cc(I)c(C(=O)N(CCC(=O)O)c2ccccc2)c1I	-1
COc1cc2[nH]c(=O)[nH]c(=O)c2cc1OC	-1
CCCCC(CC)C(=O)OCCOCCOCCOCCOC(=O)C(CC)CCCC (configuration not stated)	-1
COC(=O)CC(=O)C(C)(C)C	-1
Cc1cnc(C)c(C)n1	-1
C[Si](NC1CCCCC1)(NC1CCCCC1)NC1CCCCC1	-1
